All figures here come from patent US9493446B2.

target: orexin-1 (Homo sapiens (Human)); assay: Intracellular calcium measurement (FLIPR), CHO cells expressing human orexin-1 receptor, 3 nM orexin-A; format: cell-based; details: CHO cells expressing human orexin-1 receptor, FLIPR, 3 nM orexin-A; geometric mean if determined several times; read-out: IC50 OX1
Sequence (O43613 whole entry): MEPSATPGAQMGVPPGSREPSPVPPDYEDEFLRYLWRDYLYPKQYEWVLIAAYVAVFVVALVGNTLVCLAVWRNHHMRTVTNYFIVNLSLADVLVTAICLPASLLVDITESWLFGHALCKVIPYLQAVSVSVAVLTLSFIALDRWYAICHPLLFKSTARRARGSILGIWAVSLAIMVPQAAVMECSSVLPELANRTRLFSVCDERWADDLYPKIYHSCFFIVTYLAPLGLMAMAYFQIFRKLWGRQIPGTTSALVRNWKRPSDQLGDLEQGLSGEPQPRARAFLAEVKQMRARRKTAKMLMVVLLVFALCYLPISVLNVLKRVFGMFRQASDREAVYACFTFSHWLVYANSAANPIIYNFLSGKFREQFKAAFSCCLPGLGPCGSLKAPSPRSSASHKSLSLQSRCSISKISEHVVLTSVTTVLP
pIC50: −log10 of the molar value.
quantity: pIC50

INSERT INTO assay_data (compound, system_name, quantity, result) VALUES
  ('Cc1cc(C)c(-n2nccn2)c(C(=O)N2CCC[C@H]2c2nc(-c3cccc(Cl)c3C)no2)c1 [compound 119]', 'orexin-1 (Homo sapiens (Human))', 'pIC50', 6.73),
  ('Cc1ccc(-n2nccn2)c(C(=O)N2CCC[C@H]2c2nc(-c3ccccc3Cl)no2)n1 [compound 242]', 'orexin-1 (Homo sapiens (Human))', 'pIC50', 5.36),
  ('Cc1nc(C(=O)N2CCC[C@H]2c2nnc(-c3ccccc3OC(F)(F)F)o2)c(-c2cccc(F)c2)s1 [compound 443]', 'orexin-1 (Homo sapiens (Human))', 'pIC50', 7.17),
  ('Cc1ccc(-c2ccccn2)c(C(=O)N2CCC[C@H]2c2nc(-c3ccccc3OC(F)F)no2)c1 [compound 191]', 'orexin-1 (Homo sapiens (Human))', 'pIC50', 6.92),
  ('Cc1nc(C(=O)N2CCC[C@H]2c2nc(-c3cccc(Cl)c3C)no2)c(-c2ccccc2F)s1 [compound 124]', 'orexin-1 (Homo sapiens (Human))', 'pIC50', 6.84),
  ('Cc1ccc(-n2nccn2)c(C(=O)N2CCC[C@H]2c2nc(-c3cccc(F)c3C)no2)c1 [compound 26]', 'orexin-1 (Homo sapiens (Human))', 'pIC50', 7.11),
  ('CCOc1ncccc1-c1noc([C@@H]2CCCN2C(=O)c2cc(C#N)ccc2-n2nccn2)n1 [compound 279]', 'orexin-1 (Homo sapiens (Human))', 'pIC50', 6.53),
  ('COc1cc(C(=O)N2CCC[C@H]2c2cc(-c3cccc(Cl)c3C)on2)c(-n2nccn2)cc1C [compound 433]', 'orexin-1 (Homo sapiens (Human))', 'pIC50', 7.72),
  ('Cc1ccc(-n2nccn2)c(C(=O)N2CCC[C@H]2c2nnc(-c3cccc(Cl)c3C)[nH]2)c1 [compound 493]', 'orexin-1 (Homo sapiens (Human))', 'pIC50', 5.94),
  ('Cc1c(Cl)cccc1-c1noc([C@@H]2CCCN2C(=O)c2cccnc2-c2ccccn2)n1 [compound 107]', 'orexin-1 (Homo sapiens (Human))', 'pIC50', 5.98),
  ('CCOc1ccccc1-c1noc([C@@H]2CCCN2C(=O)c2ccccc2-n2nccn2)n1 [compound 260]', 'orexin-1 (Homo sapiens (Human))', 'pIC50', 6.41),
  ('CCOc1ncccc1-c1noc([C@@H]2CCCN2C(=O)c2cc(OC)c(F)cc2-n2nccn2)n1 [compound 223]', 'orexin-1 (Homo sapiens (Human))', 'pIC50', 6.60),
  ('COc1c(F)cccc1-c1noc([C@@H]2CCCN2C(=O)c2cc(C)ccc2-c2ccccn2)n1 [compound 203]', 'orexin-1 (Homo sapiens (Human))', 'pIC50', 7.25),
  ('COc1c(F)cccc1-c1nc([C@@H]2CCCN2C(=O)c2cc(C)ccc2-n2nccn2)no1 [compound 336]', 'orexin-1 (Homo sapiens (Human))', 'pIC50', 7.35),
  ('COc1ccc(-n2nccn2)c(C(=O)N2CCC[C@H]2c2nc(-c3ccccc3OC)no2)c1 [compound 232]', 'orexin-1 (Homo sapiens (Human))', 'pIC50', 6.87),
  ('CCOc1ncccc1-c1nnc([C@@H]2CCCN2C(=O)c2cc(Cl)c(C)cc2-n2nccn2)[nH]1 [compound 487]', 'orexin-1 (Homo sapiens (Human))', 'pIC50', 7.64),
  ('Cc1ccc(C(=O)N2CCC[C@H]2c2cc(-c3ccccc3OC(F)(F)F)on2)c(-n2nccn2)c1 [compound 435]', 'orexin-1 (Homo sapiens (Human))', 'pIC50', 7.46),
  ('COc1ccccc1-c1noc([C@@H]2CCCN2C(=O)c2nc(C)ccc2-n2nccn2)n1 [compound 235]', 'orexin-1 (Homo sapiens (Human))', 'pIC50', 6.44),
  ('Cc1cc(C(=O)N2CCC[C@H]2c2noc(-c3cccc(F)c3C)n2)c(-n2nccn2)cc1C [compound 339]', 'orexin-1 (Homo sapiens (Human))', 'pIC50', 7.82),
  ('Cc1ccc(-n2nccn2)c(C(=O)N2CCC[C@H]2c2nc(-c3cccnc3OC3CCC3)no2)c1 [compound 48]', 'orexin-1 (Homo sapiens (Human))', 'pIC50', 7.35),
  ('COc1c(Cl)cccc1-c1nc([C@@H]2CCCN2C(=O)c2ccc(C)cc2-n2nccn2)no1 [compound 354]', 'orexin-1 (Homo sapiens (Human))', 'pIC50', 7.92),
  ('Cc1ccc(-n2nccn2)c(C(=O)N2CCC[C@H]2c2noc(-c3n[nH]c4ccccc34)n2)c1 [compound 312]', 'orexin-1 (Homo sapiens (Human))', 'pIC50', 6.69),
  ('COc1cc(C(=O)N2CCC[C@H]2c2cc(-c3ccccc3)on2)c(-n2nccn2)cc1C [compound 432]', 'orexin-1 (Homo sapiens (Human))', 'pIC50', 6.49),
  ('Cc1ccc(-n2nccn2)c(C(=O)N2CCC[C@H]2c2nc(-c3ccccc3O)no2)c1 [compound 31]', 'orexin-1 (Homo sapiens (Human))', 'pIC50', 5.54),
  ('CCOc1c(F)cccc1-c1noc([C@@H]2CCCN2C(=O)c2cc(C)c(C)cc2-n2nccn2)n1 [compound 290]', 'orexin-1 (Homo sapiens (Human))', 'pIC50', 8.05),
  ('Cc1cc(C)cc(-c2nnc([C@@H]3CCCN3C(=O)c3cc(C)ccc3-n3nccn3)[nH]2)c1 [Example 511]', 'orexin-1 (Homo sapiens (Human))', 'pIC50', 6.19),
  ('Cc1ccc(-n2nccn2)c(C(=O)N2CCC[C@H]2c2ncc(-c3ccccc3)o2)c1 [Example 461]', 'orexin-1 (Homo sapiens (Human))', 'pIC50', 6.94),
  ('CCOc1ncccc1-c1noc([C@@H]2CCCN2C(=O)c2nc(C)ccc2-n2nccn2)n1 [compound 213]', 'orexin-1 (Homo sapiens (Human))', 'pIC50', 6.77),
  ('COc1cc(C(=O)N2CCC[C@H]2c2nc(-c3cccc(Cl)c3C)no2)c(-n2nccn2)cc1F [compound 130]', 'orexin-1 (Homo sapiens (Human))', 'pIC50', 6.73),
  ('Cc1ccc(-n2nccn2)c(C(=O)N2CCC[C@H]2c2nc(-c3cccc(OC(F)F)c3)no2)c1 [compound 43]', 'orexin-1 (Homo sapiens (Human))', 'pIC50', 6.55);
